- System: RPMI-8226
- Method summary: NCI tumour cell line growth inhibition, 48 h
Active and inactive are the calls of the source. Rule as the data show it: active = GI50 up to about 1.1 µM and inactive = higher.
Measure: GI50

Field: example entries. Status: answers known.
Nn1c(Sc2nc3ccccc3c(=O)n2N)nc2ccccc2c1=O | 3.5 µM (inactive)
N#CC(OC1OC(COC2OC(CO)C(O)C(O)C2O)C(O)C(O)C1O)c1ccccc1 (stereo not given) | > 225 µM (inactive)
CC1C(=O)N(C)C2(CO)C(=O)O[C@H](C)C12O (stereo not given in full) | > 100 µM (inactive)
CC1SC(=O)SC1C (stereo not given) | > 100 µM (inactive)

Input line: # returns recorded GI50 (system: RPMI-8226) for O=C1CCCCC(=O)Nc2ccccc2N1
Output line: > 100 µM (inactive)

Input line: Param item: CO/C(=N\N=C\c1cccc(Cl)c1)c1ccncc1
Output line: > 10 µM (inactive)

Input line: Param item: O=c1c2cc(Br)ccc2nc(CCl)n1-c1ccc(O)c([N+](=O)[O-])c1
Output line: 25 µM (inactive)

Input line: Param item: CCOC(=O)COc1cc(-c2ccccc2F)nc2cc3c(cc12)OCO3
Output line: 42 µM (inactive)

Input line: Param item: Brc1ccc(/N=N/N2CCCCC2)cc1
Output line: 14.1 µM (inactive)

Input line: Param item: CCOC(=O)NNC(=O)NCc1cccc(CNC(=O)NNC(=O)OCC)c1
Output line: > 100 µM (inactive)

* * *

- Tested on: SK-OV-3
- Method summary: NCI tumour cell line growth inhibition, 48 h
Active and inactive are the calls of the source. Cut-off read from the data, not from the text of the source: active = GI50 up to about 1.1 µM and inactive = higher.
Measure: GI50

Field: example entries. Status: answers known.
O=c1cccccc1NCCCCCCCNc1cccccc1=O | 42.6 µM (inactive)
Cn1ncc(NCCn2cnc3c2c(=O)n(C)c(=O)n3C)c(Cl)c1=O | > 100 µM (inactive)
CSCC[C@@H](NC(=O)[C@H](CC(C)C)NC(=O)C(Cc1cnc[nH]1)NC(=O)CNC(=O)[C@@H](NC(=O)[C@H](C)NC(=O)[C@H](Cc1c[nH]c2ccccc12)NC(=O)[C@H](CCC(N)=O)NC(=O)[C@@H](N)CC(N)=O)C(C)C)C(N)=O (stereo not given in full) | > 100 µM (inactive)
C/C1=C/C(=O)O[C@@H]2C[C@@H](CC[C@H](C)/C=C\C=C\CC1)O[C@@](O)([C@@H]1CSC(=O)N1)C2 | > 4.16 µM (inactive)

Alright, here's another compound for you.
Input line: Reported GI50 for O=c1[nH]cc(COCC(F)(F)C(F)(F)C(F)(F)C(F)F)c(=O)[nH]1 : what is it?
Output line: > 100 µM (inactive)

* * *

- Test system: K562
- Method summary: NCI tumour cell line growth inhibition, 48 h
Activity calls are given as the source filed them. Rule as the data show it: active = GI50 up to about 1.1 µM and inactive = higher.
Measure: GI50

COc1cc2c(cc1OC)C(Cc1ccccc1CCCl)=NCC2 | 30.3 µM (inactive)
CC(C)(Br)C(=O)/C=C/c1ccccc1 | 1.55 µM (inactive)
COc1cc2c(cc1OC)C(Cl)C(c1ccc(Cl)cc1)=C2Cl (stereo unspecified) | 7.66 µM (inactive)
Cc1ccc(S(=O)OC2c3ccccc3Cc3ccccc32)cc1 (stereo unspecified) | 17.7 µM (inactive)
O=C(CNc1cccc(Cl)c1)Nn1c(-c2ccccc2)nc2ccccc2c1=O | 2.66 µM (inactive)

Input line: Reported GI50 for Cc1ccc(C)c(C2NC(=O)c3ccccc3N2)c1 (stereo unspecified) : what is it?
Output line: 0.274 µM (active)

* * *

- Tested on: HOP-62
- Method summary: NCI tumour cell line growth inhibition, 48 h
The source made the active and inactive calls. Rule as the data show it: active = GI50 up to about 1.1 µM and inactive = higher.
Outcome field: choose from active, inactive

Illustrative cases are given below, each with its answer.
Cc1cc(C)c(N[S+]([O-])c2cccc(C(F)(F)F)c2)c(C)c1 (stereo not given) | inactive
O=C1C(Cl)N(c2cccc([N+](=O)[O-])c2)C1c1c[nH]c2ccccc12 (stereo not given) | inactive
COc1ccc(/C=C2\CCC(CCN3CCOCC3)C2=O)cc1 (stereo not given) | inactive
CCOC(=O)c1ccc(/N=C2\SC(=S)N(c3ccc(F)cc3)\C2=N/c2ccc(C(=O)OCC)cc2)cc1 | inactive
CC1CN=C(Nc2ccccc2)S1 (stereo not given) | inactive
COc1ccc(-c2c(C#N)c(N)n(C3OCC(O)C(O)C3O)c(=S)c2C#N)cc1 (stereo not given) | inactive
CCN(CCO)CC1COc2ccccc2O1 (stereo not given) | inactive
CN(C)c1ccc(/C=C/C(=O)O)cc1 | inactive

Input line: Outcome? Cc1ccccc1NC(=O)CSc1nnc(-c2ccc(/N=C\c3ccc(Cl)cc3)cc2)o1
Output line: inactive

Input line: Param item: C[N+]1(C)C2Cc3ccccc3C1Cc1ccccc12
Output line: inactive

Input line: Param item: CCOC(=O)/C(=C\c1cn(C(C)=O)c2ccccc12)P(C)(=O)OCC (stereo not given)
Output line: inactive

* * *

Attribute: GI50
- Test system: SK-OV-3
- Method summary: NCI tumour cell line growth inhibition, 48 h
Calls of active or inactive are those of the source. No stated cut-off is given here; in the data, active = GI50 up to about 1.1 µM and inactive = higher.

Field: example entries. Status: answers known.
C[C@@H]1[C@@H](C)C(c2ccccc2)O[Si]1(C(C)(C)C)C(C)(C)C (some centres undefined) | 26.5 µM (inactive)
CC(=O)Nc1ccc(C(=O)NN2C(=O)C(Cl)C2c2cc(Br)cc(Br)c2O)cc1 (centres undefined) | > 100 µM (inactive)
Oc1ccc(/C=N/N=c2\[nH][nH]/c(=N\N=C\c3ccc(O)cc3O)c3ccccc23)c(O)c1 | 0.428 µM (active)
OC(c1cc(C(O)(C(F)(F)F)C(F)(F)F)ncn1)(C(F)(F)F)C(F)(F)F | > 10 µM (inactive)
COc1cc(CC(C)NC(C)=O)cc(OC)c1 (centres undefined) | > 100 µM (inactive)

Alright, here's another compound for you.
Input line: Reported GI50 for CC1C(=O)N(C)C2(CO)C(=O)O[C@H](C)C12O (some centres undefined) : what is it?
Output line: > 100 µM (inactive)

* * *

- System: DMS-114
- Method summary: NCI tumour cell line growth inhibition, 48 h
Activity calls are given as the source filed them. No stated cut-off is given here; in the data, active = GI50 up to about 1.1 µM and inactive = higher.
Attribute: GI50

Field: example entries. Status: answers known.
O=C1CSC(Cc2nc3ccccc3[nH]2)=N1 | 13.1 µM (inactive)
C=C1CCCC2OC(OC)CCC12 (stereo not given) | > 100 µM (inactive)
OCC1OC(c2nc(C3=NCCCN3)cs2)C(O)C1O (stereo not given) | > 100 µM (inactive)
COC(=O)c1ccc(/N=N/N(C)CO)cc1 | > 100 µM (inactive)

Input line: Reported GI50 for CC1(C(=O)O)CCOc2ccccc21 (stereo not given) : what is it?
Output line: > 100 µM (inactive)

Input line: Param item: c1ccc2c(c1)N=C(c1ccc3ccccc3c1)CC(c1cccc3ccccc13)S2 (stereo not given)
Output line: 24.3 µM (inactive)

* * *

- System: MCF7
- Method summary: NCI tumour cell line growth inhibition, 48 h
The source made the active and inactive calls. No stated cut-off is given here; in the data, active = GI50 up to about 1.1 µM and inactive = higher.
Outcome field: choose from true (1) for active, false (0) for inactive

Illustrative cases are given below, each with its answer.
Cc1ccc(C)c(C2NC(=O)c3ccccc3N2)c1 (stereo not drawn) | true (1)
CS(=O)(=O)CCC(N)P(=O)(O)O (stereo not drawn) | false (0)
COc1cc(CC(C)NC(C)=O)cc(OC)c1 (stereo not drawn) | false (0)

Input line: Outcome? Cc1cc(S(=O)(=O)Nc2nc3ccccc3nc2-c2cccc([N+](=O)[O-])c2)c(S)cc1Cl
Output line: false (0)

Input line: Param item: CC1=C(Br)C(=O)c2c(O)ccc(O)c2C1=O
Output line: true (1)

Input line: Param item: CC(C)(C)c1ccc(O)c(CN(Cc2cc(C(C)(C)C)ccc2O)c2ccccc2)c1
Output line: false (0)

* * *

- System: EKVX
- Method summary: NCI tumour cell line growth inhibition, 48 h
The source made the active and inactive calls. No stated cut-off is given here; in the data, active = GI50 up to about 1.1 µM and inactive = higher.
Attribute: GI50

Field: example entries. Status: answers known.
CCOc1c(Cc2ccccc2)c(=O)n2c3ccccc3n3c(=O)n(C)c(=O)c1c23 | > 100 µM (inactive)
O=C(CN1c2ccccc2Sc2ccccc21)n1cnc2ccccc21 | > 100 µM (inactive)
COc1ccc(-c2c3c(n(C4OC(CO)C(O)C(O)C4O)c(=S)c2C#N)CCCC3)cc1 (stereo unspecified) | > 100 µM (inactive)
CCCCCCCN(CCCCCCC)CC(O)c1cc2ccccc2c2cc(Br)ccc12 (stereo unspecified) | 25.8 µM (inactive)
COc1ccc(NC(=O)C2C(=O)N(c3ccc(OC)cc3)C(=O)/C2=N\N)cc1 (stereo unspecified) | > 100 µM (inactive)
O=C1c2ccccc2CC1C1(O)C(=O)Nc2c(Cl)cc(Cl)cc21 (stereo unspecified) | 67 µM (inactive)
C=C(COC(=O)C(C)C)[C@H]1Oc2ccc(C(C)=O)cc2[C@@H]1OC(=O)C(C)C | > 100 µM (inactive)
CC1SC(=O)SC1C (stereo unspecified) | > 100 µM (inactive)
CCOC(=O)/C(C(=O)Nc1ccc(Cl)cc1)=C(/N)N1CCOCC1 | > 100 µM (inactive)
Oc1ccc(SCc2cc(O)ccc2O)cc1 | 18.9 µM (inactive)

Input line: Reported GI50 for Cc1ccc(C)c(C2NC(=O)c3ccccc3N2)c1 (stereo unspecified) : what is it?
Output line: 5.07 µM (inactive)
